- TEST: Cytotoxicity (SRB) against non-tumoral L02 cells
- Format: cell-based, human
- CONDITION SUMMARY: human, L02 cells (non-tumoral human liver cell line); increasing concentrations up to 100 μM; mean ± SD of at least three independent experiments; read-out: Normal Human Cell Lines, CC50, L02
CC50 at 48 h reference
MEASURED ATTRIBUTE: CC50 at 48 h (µM)

COc1cccc(OC)c1/C=C/C(=O)c1cccc(Br)c1 [b36] | 61.2
COc1cccc(OC)c1/C=C/C(=O)c1ccc(O)cc1O [b27] | 35.5
COc1cccc(OC)c1/C=C/C(=O)c1ccc(O)cc1 [b26] | 28.2
COc1ccc(C(=O)/C=C/c2c(OC)cccc2OC)cc1OC [b19] | 39.8
COc1cccc(OC)c1/C=C/C(=O)c1ccc(C)cc1 [b4] | 59.6

Data provenance is paper PMC6271338.
